Target: T1, CD27 expressed on the cell surface (HT1080_CD27 cells) (human, UniProt P26842 20-260)
T1 construct: whole, on cells; also called K562_CD27
T1 sequence (looked up): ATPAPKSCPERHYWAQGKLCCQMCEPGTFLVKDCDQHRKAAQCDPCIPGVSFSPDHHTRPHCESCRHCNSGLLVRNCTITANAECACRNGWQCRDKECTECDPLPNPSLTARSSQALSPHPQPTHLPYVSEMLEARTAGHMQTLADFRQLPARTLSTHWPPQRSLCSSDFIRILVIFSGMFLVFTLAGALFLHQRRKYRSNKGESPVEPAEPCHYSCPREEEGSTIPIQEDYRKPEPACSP
Assay: cellular binding assay, HT1080_CD27 cells; further: test concentration or dose not given here
endpoint-label: Cellular binding assay [RFU] (RFU)
Give bare numbers, in RFU.

Required: Cellular binding assay [RFU], one value per binder below.
1. P018.S.02.A.B05 (antibody, V domains shown, V regions on human Ig constant parts; also called AB27_31) VH: QEQLVESGGGLVQPEGSLTLTCKASGFDFSSSYYMSWVRQAPGKGLEWIACIDTADGYTYYASWAKGRFTISKTSSTTVSLQMTSLTAADTATYFCARERIAYNTDYFNLWGPGTLVTVSS VL: AQVLTQTPSPVSAAVGGTVTISCQSSQSLYNYNNLAWYQQKPGQPPKLLIYSVSNLASGVPSRFGGSGSGTQFTLTISDLQSDDAATYYCQGYYSGAVYTFGGGTEVVVK
2. P018.S.02.A.A06 (antibody, V domains shown, V regions on human Ig constant parts; also called AB27_28) VH: QSVEESGGRLVKPDESLTLTCTVSGIDLSTYAMGWVRQAPGKGLEYIGMISTGGSAYYASWAQGRFTISRTSTTVDLKMTSLTTEDTATYFCARLRDPYSYRTYFNLWGPGTLVTVSS VL: ALVMTQTPSSVEAAVGGTVTIKCQASLSISSALAWYQQKPGQRPKLLIYDASNLESGVPSRFKGSGSGAHFTLTVSDLESADAATYYCQGPYDTVNNNSFGGGTEVVVK
3. P018.S.02.A.B03 (antibody, V domains shown, V regions on human Ig constant parts; also called AB27_30) VH: QSLEESGGGLVKPGGTLTLTCTASGFSLSSTYMSWVRQAPGKGLEWIGDIYTDGSTYYASWVNGRFTISKTSTTVDLKMTSLTTEDTATYFCARGAAAAYDLWGQGTLVTVSS VL: AYDMTQTPASVSAAVGGTVTIKCQASQNIYTNLAWYQQKPGQPPKLLIYGVSNLESGVPSRFKGSGSGTQFTLTISGVQSDDAATYYCQQGYSSTNVENAFGGGTEVVVK

1. 374
2. 293
3. 332
